# credit: patent US4048299A

I'd be grateful if you could share measured Acid Production Inhibition for these entries.
- Tested on: Streptococcus spp. KI-R
- methodNotes: Acid production inhibition by aldehydes in product vehicles, broth-tube technique
- Format: cell-based
- testContext: in dextrose syrup, 1 to 5 percent aldehyde, 2 h incubation
Supply the numeric figure in Per Cent, leaving out any unit text.

Name the recorded Acid Production Inhibition for CCCCCCCCCC=O [Decanaldehyde] .
35

Name the recorded Acid Production Inhibition for O=C[C@H](O)CO (racemic) [d,1-Glyceraldehyde] .
48

Name the recorded Acid Production Inhibition for O=CCCCC=O [Glutaraldehyde] .
70

Name the recorded Acid Production Inhibition for O=CCO [Glycolaldehyde] .
57

Name the recorded Acid Production Inhibition for CC(=O)C=O [Pyruvaldehyde] .
57

====

- methodNotes: In vivo caries evaluation, Osborne-Mendel strain 1 rat
- Design: species or system rat (Osborne-Mendel strain 1); scale not given here
- testContext: Table II; 1 percent in diet, 90 days; RCD control 19.0 (octan-), 14.1 (nonan-), 17.6 (decan-), 22.3 (undecylenic)
attributeMeasured: Caries Score, Mean Incidence
API doc: respond with a numeric literal and nothing else, no unit.

Name the recorded Caries Score, Mean Incidence for CCCCCCCC=O .
9.8

Name the recorded Caries Score, Mean Incidence for CC=CCCCCCCCC=O .
7.4

Name the recorded Caries Score, Mean Incidence for CCCCCCCCCC=O .
10.4

Name the recorded Caries Score, Mean Incidence for CCCCCCCCC=O .
5.1

====

- System: Streptococcus spp. KI-R
- methodNotes: Growth inhibition by aldehydes in product vehicles, pour-plate technique
- Type: cell-based
- testContext: in toothpaste (aqueous extract), 1 to 5 percent aldehyde, 24 h incubation
attributeMeasured: Growth Inhibition

[[record]]
molecule = "O=C[C@H](O)CO (racemic)"
attributemeasured = "Growth Inhibition"
valueobserved = "0 Per cent"

[[record]]
molecule = "CCCCCCCCCC=O"
attributemeasured = "Growth Inhibition"
valueobserved = "N.S."

[[record]]
molecule = "CC(=O)C=O"
attributemeasured = "Growth Inhibition"
valueobserved = "N.S."

[[record]]
molecule = "O=CCO"
attributemeasured = "Growth Inhibition"
valueobserved = "N.S."


Alright, here's another molecule for you.
Name the recorded Growth Inhibition for O=CCCCC=O .
N.S.

====

I'd be grateful if you could share measured Acid Production Inhibition for these entries.
- Test system: Streptococcus spp. KI-R
- methodNotes: Acid production inhibition by aldehydes in product vehicles, broth-tube technique
- Format: cell-based
- testContext: in compressed candy tablet, 1 to 5 percent aldehyde, 5 h incubation
Supply the numeric figure in Per Cent, leaving out any unit text.

What reported Acid Production Inhibition corresponds to CC(=O)C=O on Streptococcus spp. KI-R?
30

What reported Acid Production Inhibition corresponds to CCCCCCCCCC=O on Streptococcus spp. KI-R?
85

What reported Acid Production Inhibition corresponds to O=C[C@H](O)CO (racemic) on Streptococcus spp. KI-R?
25

What reported Acid Production Inhibition corresponds to O=CCO on Streptococcus spp. KI-R?
0

What reported Acid Production Inhibition corresponds to O=CCCCC=O on Streptococcus spp. KI-R?
100

====

- System: Lactobacillus casei ATCC 4646
- methodNotes: Acid production inhibition by aldehydes in product vehicles, broth-tube technique
- Type: cell-based
- testContext: in dextrose syrup, 1 to 5 percent aldehyde, 5 h incubation
- Procedure: Other in vitro evaluations utilized a broth tube analysis of representative anticaries aldehydes incorporated in the vehicles of this invention against cultures of acid producing microorganisms normally present in the mouth. Standard laboratory procedures were utilized throughout to evaluate the acid production inhibition and growth inhibition over the incubation time of up to 24 hours. (a)Measured by broth-tube technique. […]
attributeMeasured: Acid Production Inhibition (Per Cent)
Supply the numeric figure in Per Cent, leaving out any unit text.

What reported Acid Production Inhibition corresponds to O=CCCCC=O [Glutaraldehyde] on Lactobacillus casei ATCC 4646?
70

What reported Acid Production Inhibition corresponds to O=CCO [Glycolaldehyde] on Lactobacillus casei ATCC 4646?
3

What reported Acid Production Inhibition corresponds to CCCCCCCCCC=O [Decanaldehyde] on Lactobacillus casei ATCC 4646?
77

What reported Acid Production Inhibition corresponds to O=C[C@H](O)CO (racemic) [d,1-Glyceraldehyde] on Lactobacillus casei ATCC 4646?
33

What reported Acid Production Inhibition corresponds to CC(=O)C=O [Pyruvaldehyde] on Lactobacillus casei ATCC 4646?
33

====

I'd be grateful if you could share measured Caries Score, Mean Extent for these entries.
- methodNotes: In vivo caries evaluation, Osborne-Mendel strain 1 rat
- Parameters: species or system rat (Osborne-Mendel strain 1); scale not given here
- testContext: Table II; 1 percent in diet, 90 days; RCD control 49.6 (octan-), 34.3 (nonan-), 46.0 (decan-), 54.6 (undecylenic)

Name the recorded Caries Score, Mean Extent for CC=CCCCCCCCC=O [Undecylenic aldehyde] .
16.4

Name the recorded Caries Score, Mean Extent for CCCCCCCCCC=O [Decanaldehyde] .
24.1

Name the recorded Caries Score, Mean Extent for CCCCCCCC=O [Octanaldehyde] .
20.4

Name the recorded Caries Score, Mean Extent for CCCCCCCCC=O [Nonanaldehyde] .
10.2

====

- Tested on: Mixed human oral microorganisms
- methodNotes: Growth inhibition by aldehydes in product vehicles, pour-plate technique
- Type: cell-based
- testContext: in toothpaste (aqueous extract), 1 to 5 percent aldehyde, 24 h incubation
attributeMeasured: Growth Inhibition

Here is how some molecules turned out for Growth Inhibition.
[[record]]
molecule = "O=C[C@H](O)CO (racemic) [d,1-Glyceraldehyde]"
attributemeasured = "Growth Inhibition"
valueobserved = "100 Per cent"

[[record]]
molecule = "O=CCCCC=O [Glutaraldehyde]"
attributemeasured = "Growth Inhibition"
valueobserved = "N.S."

[[record]]
molecule = "CCCCCCCCCC=O [Decanaldehyde]"
attributemeasured = "Growth Inhibition"
valueobserved = "0 Per cent"

[[record]]
molecule = "O=CCO [Glycolaldehyde]"
attributemeasured = "Growth Inhibition"
valueobserved = "100 Per cent"


Name the recorded Growth Inhibition for CC(=O)C=O [Pyruvaldehyde] .
100 Per cent

====

- Test system: Mixed human oral microorganisms
- methodNotes: Acid production inhibition by aldehydes in product vehicles, broth-tube technique
- Format: cell-based
- testContext: in compressed candy tablet, 1 to 5 percent aldehyde, 24 h incubation
Given measured Acid Production Inhibition, output Met if it is greater than or equal to 70 Per Cent and Not met if not.

Could you please find out whether O=CCCCC=O [Glutaraldehyde] has Acid Production Inhibition that meets 70 Per Cent or exceeds it?
Not met

Could you please find out whether CCCCCCCCCC=O [Decanaldehyde] has Acid Production Inhibition that meets 70 Per Cent or exceeds it?
Not met

Could you please find out whether O=C[C@H](O)CO (racemic) [d,1-Glyceraldehyde] has Acid Production Inhibition that meets 70 Per Cent or exceeds it?
Met

Could you please find out whether CC(=O)C=O [Pyruvaldehyde] has Acid Production Inhibition that meets 70 Per Cent or exceeds it?
Met

====

- Test system: Lactobacillus casei ATCC 4646
- methodNotes: Growth inhibition by aldehydes in product vehicles, pour-plate technique
- Type: cell-based
- testContext: in tooth powder (aqueous extract), 1 to 5 percent aldehyde, 5 h incubation
attributeMeasured: Growth Inhibition

[[record]]
compound = "CC(=O)C=O"
testedon = "Lactobacillus casei ATCC 4646"
attributemeasured = "Growth Inhibition"
valueobserved = "98 Per cent"

[[record]]
compound = "O=CCO"
testedon = "Lactobacillus casei ATCC 4646"
attributemeasured = "Growth Inhibition"
valueobserved = "N.S."

[[record]]
compound = "O=C[C@H](O)CO (racemic)"
testedon = "Lactobacillus casei ATCC 4646"
attributemeasured = "Growth Inhibition"
valueobserved = "N.S."

[[record]]
compound = "O=CCCCC=O"
testedon = "Lactobacillus casei ATCC 4646"
attributemeasured = "Growth Inhibition"
valueobserved = "N.S."


Alright, here's another compound for you.
What reported Growth Inhibition corresponds to CCCCCCCCCCCC=O on Lactobacillus casei ATCC 4646?
> 99.99 Per cent

====

- Tested on: Lactobacillus casei ATCC 4646
- methodNotes: Acid production inhibition by aldehydes in product vehicles, broth-tube technique
- Format: cell-based
- testContext: in toothpaste (aqueous extract), 1 to 5 percent aldehyde, 5 h incubation
attributeMeasured: Acid Production Inhibition (Per cent)
Supply the numeric figure in Per cent, leaving out any unit text.

Name the recorded Acid Production Inhibition for O=CCO [Glycolaldehyde] .
0

Name the recorded Acid Production Inhibition for CC(=O)C=O [Pyruvaldehyde] .
0

Name the recorded Acid Production Inhibition for O=CCCCC=O [Glutaraldehyde] .
80

Name the recorded Acid Production Inhibition for O=C[C@H](O)CO (racemic) [d,1-Glyceraldehyde] .
0

Name the recorded Acid Production Inhibition for CCCCCCCCCC=O [Decanaldehyde] .
80

====

- Tested on: Lactobacillus casei ATCC 4646
- methodNotes: Acid production inhibition by aldehydes in product vehicles, broth-tube technique
- Format: cell-based
- testContext: in sucrose syrup, 1 to 5 percent aldehyde, 5 h incubation
- Procedure: Other in vitro evaluations utilized a broth tube analysis of representative anticaries aldehydes incorporated in the vehicles of this invention against cultures of acid producing microorganisms normally present in the mouth. Standard laboratory procedures were utilized throughout to evaluate the acid production inhibition and growth inhibition over the incubation time of up to 24 hours. (a)Measured by broth-tube technique. […]
Given measured Acid Production Inhibition, output yes if it is greater than or equal to 30 Per cent and no if not.

Could you please find out whether O=CCO has Acid Production Inhibition that meets 30 Per cent or exceeds it?
no

Could you please find out whether CCCCCCCCCC=O has Acid Production Inhibition that meets 30 Per cent or exceeds it?
yes

Could you please find out whether O=CCCCC=O has Acid Production Inhibition that meets 30 Per cent or exceeds it?
yes

Could you please find out whether CC(=O)C=O has Acid Production Inhibition that meets 30 Per cent or exceeds it?
no
